meta.source: patent US11524951B2

- targetOfAssay: Wild-type EGFR (Homo sapiens)
- Construct: Assays to measure cellular phosphorylation of endogenous p-EGFR in cell lysates; endogenous in cells; host or cells: LoVo (human colon cell line)
- methodNotes: Wild-type EGFR cellular phosphorylation assay
- Format: cell-based
- runParameters: LoVo human colon cells; endogenous p-EGFR in cell lysates by ELISA; 2 h with compound, then stimulated 100 ng/ml for 10 minutes; read-out: Assay 3 (IC50)
pIC50: −log10 of the molar value.

inputSmiles: C=CC(=O)Nc1cc(Nc2nccc(-c3cnn4c3CCCC4)n2)c(OC)cc1N1CC(N(C)C)C1
pIC50: 5.15

inputSmiles: C=CC(=O)Nc1cc(Nc2nccc(-c3cnn4c3CCCC4)n2)c(OC)cc1N(C)CCN(C)C
pIC50: 6.34

inputSmiles: C=CC(=O)Nc1cc(Nc2nccc(-c3cn(C)c4ccccc34)n2)c(OC)cc1N1CC(N(C)C)C1
pIC50: 5.98

inputSmiles: C=CC(=O)Nc1cc(Nc2ncc(C)c(-c3c[nH]c4ccccc34)n2)c(OC)cc1N1CCN(C)CC1
pIC50: 6.28

inputSmiles: C=CC(=O)Nc1cc(Nc2ncc(Cl)c(-c3cnn4ccccc34)n2)c(OC)cc1N1CCN(CC(=O)N(C)C)CC1
pIC50: 5.07

----------
- targetOfAssay: Wild-type EGFR (Homo sapiens, UniProt P00533)
- Construct: Assays to measure cellular phosphorylation of endogenous p-EGFR in cell lysates; endogenous in cells; host or cells: LoVo (human colon cell line)
- Sequence (P00533 25-1210): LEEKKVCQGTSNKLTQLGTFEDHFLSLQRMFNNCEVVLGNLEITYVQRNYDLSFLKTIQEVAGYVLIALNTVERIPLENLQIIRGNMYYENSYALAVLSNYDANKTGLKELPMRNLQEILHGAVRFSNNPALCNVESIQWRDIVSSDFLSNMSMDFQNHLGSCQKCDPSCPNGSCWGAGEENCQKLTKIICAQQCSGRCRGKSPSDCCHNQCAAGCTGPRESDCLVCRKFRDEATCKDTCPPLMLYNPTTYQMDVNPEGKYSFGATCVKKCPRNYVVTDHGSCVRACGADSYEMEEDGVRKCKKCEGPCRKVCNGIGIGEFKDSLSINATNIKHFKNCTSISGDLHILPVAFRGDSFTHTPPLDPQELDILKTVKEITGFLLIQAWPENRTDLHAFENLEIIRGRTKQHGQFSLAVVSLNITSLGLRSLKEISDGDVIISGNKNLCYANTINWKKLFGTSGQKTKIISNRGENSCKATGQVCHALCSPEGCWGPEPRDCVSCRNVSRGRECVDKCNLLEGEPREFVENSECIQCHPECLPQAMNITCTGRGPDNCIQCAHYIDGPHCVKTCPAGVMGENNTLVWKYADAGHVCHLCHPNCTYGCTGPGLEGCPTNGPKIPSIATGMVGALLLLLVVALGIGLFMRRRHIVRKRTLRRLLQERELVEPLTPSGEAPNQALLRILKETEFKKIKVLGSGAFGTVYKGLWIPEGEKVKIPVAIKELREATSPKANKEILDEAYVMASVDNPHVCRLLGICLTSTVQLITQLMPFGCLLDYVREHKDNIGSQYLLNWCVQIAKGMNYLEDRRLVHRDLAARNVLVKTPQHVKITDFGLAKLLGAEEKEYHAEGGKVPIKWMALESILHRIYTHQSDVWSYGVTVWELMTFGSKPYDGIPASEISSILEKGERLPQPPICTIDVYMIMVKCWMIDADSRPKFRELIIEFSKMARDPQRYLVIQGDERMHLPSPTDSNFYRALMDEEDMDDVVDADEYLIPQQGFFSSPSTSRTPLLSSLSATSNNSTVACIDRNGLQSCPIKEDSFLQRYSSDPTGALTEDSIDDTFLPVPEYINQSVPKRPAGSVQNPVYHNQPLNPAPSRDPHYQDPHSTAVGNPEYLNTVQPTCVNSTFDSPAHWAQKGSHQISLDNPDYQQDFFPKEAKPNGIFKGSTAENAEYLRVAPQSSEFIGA
- methodNotes: Wild-type EGFR cellular phosphorylation assay
- Assay type: cell-based
- runParameters: LoVo human colon cells; endogenous p-EGFR in cell lysates by ELISA; 2 h with compound, then stimulated 100 ng/ml for 10 minutes; read-out: Assay 3 (IC50)
Lab note: compare IC50 with 1000 nM, writing yes if less and no if equal or more.

compound: C=CC(=O)Nc1cc(Nc2ncc(Cl)c(-c3cnn4ccccc34)n2)c(OC)cc1N(C)CCN1CCN(C)CC1 [Example 32]
category: no
//
compound: C=CC(=O)Nc1cc(Nc2ncc(Cl)c(-c3cn(C)c4ccccc34)n2)c(OC)cc1N1CC[C@@H](N(C)C)C1 [Example 21]
category: yes
//
compound: C=CC(=O)Nc1cc(Nc2nccc(-c3c[nH]c4ccccc34)n2)c(OC)cc1N1CC(N(C)C)C1 [Example 58]
category: yes
//
compound: C=CC(=O)Nc1cc(Nc2ncc(C)c(-c3cn(C)c4ccccc34)n2)c(OC)cc1N(C)CCN(C)C [Example 19]
category: yes
//
compound: C=CC(=O)Nc1cc(Nc2ncc(C)c(-c3cnn4ccccc34)n2)c(OC)cc1C1=CCN(C)CC1 [Example 1]
category: yes
//
compound: C=CC(=O)Nc1cc(Nc2ncc(C)c(-c3cn(C)c4ccccc34)n2)c(OC)cc1N1CCN(C)CC1 [Example 18]
category: no
//
compound: C=CC(=O)Nc1cc(Nc2ncc(Cl)c(-c3cnn4ccccc34)n2)c(OC)cc1N(C)CCN(C)C [Example 6]
category: yes
//
compound: C=CC(=O)Nc1cc(Nc2nccc(-c3c[nH]c4ccccc34)n2)c(OC)cc1N1CCN(C)CC1 [Example 15]
category: no
//
compound: C=CC(=O)Nc1cc(Nc2ncc(Cl)c(-c3cnn4ccccc34)n2)c(OC)cc1N1CCN(C(=O)[C@H](C)N)CC1 [Example 11]
category: no
//
compound: C=CC(=O)Nc1cc(Nc2nccc(-c3c[nH]c4ccccc34)n2)c(OC)cc1N(C)CCN(C)C [Example 59]
category: yes
//
compound: C=CC(=O)Nc1cc(Nc2nccc(-c3cn(C)c4ccccc34)n2)c(OC)cc1N1CC[C@@H]2CN(C)C[C@@H]21 [Example 41]
category: no
//
compound: C=CC(=O)Nc1cc(Nc2ncc(C#N)c(-c3c[nH]c4ccccc34)n2)c(OC)cc1N1CCN(C)CC1 [Example 27]
category: yes
//
compound: C=CC(=O)Nc1cc(Nc2ncc(Cl)c(-c3cn(C)c4ccccc34)n2)c(OC)cc1N(C)CCN(C)C [Example 26]
category: yes
//
compound: C=CC(=O)Nc1cc(Nc2ncc(Cl)c(-c3c[nH]c4ccccc34)n2)c(OC)cc1N(C)CCN(C)C [Example 25]
category: yes
//
compound: C=CC(=O)Nc1cc(Nc2nccc(-c3cnn4ccccc34)n2)c(OC)cc1C1=CCN(C)CC1 [Example 51]
category: yes
